Source: PubChem BioAssay

Study System: Calmodulin-1 (Homo sapiens) (UniProt P0DP23)
Procedure Text: calcium-bound CALM1 binders on microarrays, profiling panel, artefact control for SMM control-protein annotation, biochemical, small-molecule microarray, Cy5-labelled CALM1, plus calcium (AID 1112);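 further: score merges spot fluorescence with signal to noise from triplicate slides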
Recorded Conditions: Cy5-CALM1 binding fluorescence, higher = more signal
# key: entry, value: composite z-score
Quantity: composite z-score

| Molecule | Quantity | Readout Value |
| --- | --- | --- |
| COc1cccc(OC)c1C(=O)O[C@H]1[C@@H]2OC(=O)[C@H](Cc3cccc(Br)c3)C/C=C/C[C@@H](Cc3cccc(Br)c3)C(=O)O[C@H]2[C@@H](OC)O[C@@H]1CO | composite z-score | -0.0545 |
| C=CCC(OC(C)=O)[C@@H]1[C@@H](N(Cc2cccc3ccccc23)C(=O)c2ccc(C)cc2)c2cc(OCCCO)ccc2N1C(=O)c1ccc2ccccc2n1 (stereo partly drawn) | composite z-score | -0.195 |
| COCCOC(=O)N1C(=O)[C@@]2(c3cc(C#CC4=CCCCC4)ccc31)[C@H](C(=O)N1CCc3cc(OC)c(OC)cc3C1)[C@H]1C(=O)O[C@H](c3ccccc3)[C@H](c3ccccc3)N1[C@@H]2c1ccc(O)cc1 | composite z-score | 0.673 |
| C=CCNC(=O)[C@H]1[C@@H]2C(=O)O[C@@H](c3ccccc3)[C@@H](c3ccccc3)N2[C@@H](c2ccccc2OCCO)[C@]12C(=O)N(C(=O)OCCOC)c1ccccc12 | composite z-score | 0.287 |
| C[N+](C)(C)CCCC[C@@H]1NC(=O)[C@H]2C[C@@H](C(=O)NCCCCCNC(=O)CS)[C@@H](c3ccc(O)cc3)N2C1=O | composite z-score | 0.213 |
| C#CCN=C(N)N | composite z-score | -0.736 |
| CO[C@H]1O[C@H](CO)[C@@H](OC(=O)Nc2ccccc2)[C@@H]2OC(=O)[C@H](Cc3ccccc3)C/C=C/C[C@@H](Cc3ccccc3)C(=O)O[C@@H]12 | composite z-score | -0.123 |
| CN(C)CCCC[C@@H]1NC(=O)[C@@H]2C[C@H](C(=O)NCCCCCCNC(=O)CS)[C@H](c3cccc(OCCO)c3)N2C1=O | composite z-score | -0.221 |
| O=C1N(CCS(=O)(=O)c2ccccc2)c2ccccc2[C@@H]2OC(c3ccc(OCCCO)cc3)=N[C@]12CCS(=O)(=O)c1ccccc1 | composite z-score | 0.176 |
| C=C(/C(=C/C[C@H](OC(=O)c1ccncc1)c1ccccc1OCCO)c1cc(C(=O)OC)ccc1OC)C(C)C | composite z-score | -0.587 |
| C[C@@H](OCc1ccccc1)C1NC(=O)[C@@]23C(=O)N[C@@H](Cc4ccccc4)C2[C@H](C)[C@@]2(C)O[C@H]2C3/C=C/C/C=C\CNC(=O)[C@H](Cc2ccccc2)NC1=O (stereo partly drawn) | composite z-score | -1.15 |
| CC(C)CNC(=O)[C@@H]1c2ccccc2C(=O)N(CC23CC4CC(CC(C4)C2)C3)[C@H]1c1ccc(CO)cc1 | composite z-score | 0.769 |
| CCCCC(=C=CC[C@@H](O)c1ccc(OCCO)cc1)C[C@@H](O)c1ccccn1 | composite z-score | 0.0751 |
| C=CCN1C(=O)[C@]2(O[C@H](CCn3cc([C@H](O)c4ccccc4)nn3)[C@@H]([Si](C)(C)c3ccc(OC)cc3)[C@@H]2C)c2cc(N3C(=O)c4cccc5cccc3c45)ccc21 | composite z-score | -0.58 |
| COc1ccc(C(O)C2C=CC3C(=O)N(C)C(=O)C3N2Nc2ccc([N+](=O)[O-])cc2[N+](=O)[O-])cc1OCc1ccccc1 (stereo not drawn) | composite z-score | -0.0482 |
| CC(C)C(=C=CC[C@@H](O)c1ccccc1OCCO)C[C@@H](O)c1cc(Cl)cc(Cl)c1O | composite z-score | -0.538 |
| CCCC[C@@H]1C[C@H]1[C@@H](NC(=O)Cc1ccccc1)c1ccc(Cl)cc1 | composite z-score | 1.53 |
| CN1C(=O)C2C(C1=O)C1C=C(c3ccc(CO)cc3)C2C(c2cccs2)N1C (stereo not drawn) | composite z-score | 0.312 |
| CCCC[C@@H](O)C1=C(COC)Cn2c(=O)n(-c3ccccc3)c(=O)n2[C@H]1CO | composite z-score | -0.694 |
| C=CC[C@]1(C(=O)NCCCOC)N=C(c2ccc(OCCCO)cc2)O[C@H]1c1ccccc1 | composite z-score | -0.484 |
| C=CC[C@]1(C(=O)N(C)C)COC(c2ccc(OCCCO)cc2)=N1 | composite z-score | -0.372 |
| C#CCN([C@H](/C=C/C1CC1)[C@@H](O)Cc1ccccc1)[C@@H](Cc1ccccc1)C(=O)OC | composite z-score | -0.861 |
| C=CC[C@]1(C(=O)OC)N=C(c2ccc(OCCCO)cc2)O[C@H]1c1ccccc1N=[N+]=[N-] | composite z-score | -0.357 |
| CC(C)C[C@@H]1NC(=O)[C@@H]2C[C@H](C(=O)NCCCC[N+](C)(C)C)[C@H](c3ccc(O)cc3)N2C1=O | composite z-score | -0.768 |
| COc1ccc(NN2C(C(O)c3cc(C(F)(F)F)cc(C(F)(F)F)c3)C=CC3C(=O)N(C4CCCCC4)C(=O)C32)cc1 (stereo not drawn) | composite z-score | 0.0635 |
| CCc1cccc(NC(=O)O[C@H]2[C@H](OC(=O)Nc3ccc4c(c3)OCO4)[C@H](OC(=O)Nc3ccc4c(c3)OCO4)[C@@H](OC)O[C@@H]2CO)c1 | composite z-score | -0.943 |
| C=CCC(OC(C)=O)[C@@H]1[C@@H](N(Cc2cc3ccccc3o2)C(=O)Cc2ccc(OC)cc2)c2cc(OCCCO)ccc2N1C(=O)Cc1ccc(OC)cc1 (stereo partly drawn) | composite z-score | 0.158 |
| C=CCOC(=O)[C@H]1[C@@H]2C(=O)O[C@@H](c3ccccc3)[C@@H](c3ccccc3)N2[C@@H](c2ccc(OCCOC(=O)[C@H]3C[C@H]4C(=O)NCC(=O)N4[C@H]3c3ccc(O)cc3)cc2)[C@]12C(=O)Nc1ccc(I)cc12 | composite z-score | 0.295 |
